TEST: Preemergence herbicidal activity (% control) against monocot weeds
Assay type: in vivo
MEASUREMENT_CONDITIONS: pre-emergence, 336 h; 4 lb./A., average, about two weeks after application; read-out: Herbicidal activity (% control), preemergence, monocots
# label = fulfilled if activity at 4483.4 g/ha >= 90% else not fulfilled

Check out these entries, answers already filled in.
[
  {
    "COMPOUND": "Cc1cc(Oc2ccc(C(F)(F)F)cc2Cl)ccc1[N+](=O)[O-]",
    "LABEL": "fulfilled"
  },
  {
    "COMPOUND": "CCSC(=O)N(C(=O)SCC)c1cc(Oc2ccc(C(F)(F)F)cc2Cl)ccc1[N+](=O)[O-]",
    "LABEL": "not fulfilled"
  }
]

Exam item: decide whether the reported activity at 4483.4 g/ha for CC(Oc1cc(Oc2ccc(C(F)(F)F)cc2Cl)ccc1[N+](=O)[O-])C(=O)N(C)C (centres unmarked) is at least 90%. fulfilled

// query: CCCOc1cc(Oc2ccc(C(F)(F)F)cc2Cl)ccc1[N+](=O)[O-] not fulfilled

// query: CCCCOc1cc(Oc2ccc(C(F)(F)F)cc2Cl)ccc1[N+](=O)[O-] not fulfilled

// query: CCOC(=O)C(C)Oc1cc(Oc2ccc(C(F)(F)F)cc2Cl)ccc1[N+](=O)[O-] (centres unmarked) fulfilled

* * *

TEST: Postemergence herbicidal activity (% control) against monocot weeds
Assay type: in vivo
MEASUREMENT_CONDITIONS: post-emergence, 336 h; 4 lb./A., average, about two weeks after application; read-out: Herbicidal activity (% control), postemergence, monocots
# label = t if activity at 4483.4 g/ha >= 70% else f

Check out these entries, answers already filled in.
[
  {
    "COMPOUND": "O=[N+]([O-])c1ccc(Oc2ccc(C(F)(F)F)cc2Cl)cc1N1CCOCC1",
    "LABEL": "t"
  },
  {
    "COMPOUND": "COC(=O)C(C)Oc1cc(Oc2ccc(C(F)(F)F)cc2Cl)ccc1[N+](=O)[O-] (stereo not drawn)",
    "LABEL": "t"
  }
]

Exam item: decide whether the reported activity at 4483.4 g/ha for O=[N+]([O-])c1ccc(Oc2ccc(C(F)(F)F)cc2Cl)cc1OCC(F)(F)F is at least 70%. t

// query: CC(Oc1cc(Oc2ccc(C(F)(F)F)cc2Cl)ccc1[N+](=O)[O-])C(=O)O (stereo not drawn) t

// query: O=[N+]([O-])c1ccc(Oc2ccc(C(F)(F)F)cc2Cl)cc1OCC1CO1 (stereo not drawn) f

// query: C#CCOc1cc(Oc2ccc(C(F)(F)F)cc2Cl)ccc1[N+](=O)[O-] t

// query: CCOc1cc(Oc2c(Cl)cc(C(F)(F)F)cc2Cl)ccc1[N+](=O)[O-] t

// query: O=[N+]([O-])c1ccc(Oc2ccc(C(F)(F)F)cc2Cl)cc1NCCO f

* * *

// values below are reported activity at 4483.4 g/ha
TEST: Postemergence herbicidal activity (% control) against monocot weeds
Format: in vivo
MEASUREMENT_CONDITIONS: post-emergence, 336 h; 4 lb./A., average, about two weeks after application; read-out: Herbicidal activity (% control), postemergence, monocots
Include the unit right after the number.

Example results:
[
  {
    "COMPOUND": "CCSC(=O)N(C(=O)SCC)c1cc(Oc2ccc(C(F)(F)F)cc2Cl)ccc1[N+](=O)[O-] [Example 46]",
    "MEASUREMENT": "0%"
  },
  {
    "COMPOUND": "Cc1cc(Oc2ccc(C(F)(F)F)cc2C#N)ccc1[N+](=O)[O-] [Example 9]",
    "MEASUREMENT": "97%"
  },
  {
    "COMPOUND": "CCCN(CCC)c1cc(Oc2ccc(C(F)(F)F)cc2Cl)ccc1[N+](=O)[O-] [Example 41]",
    "MEASUREMENT": "71%"
  },
  {
    "COMPOUND": "CCOC(=O)COc1cc(Oc2ccc(C(F)(F)F)cc2Cl)ccc1[N+](=O)[O-] [Example 24]",
    "MEASUREMENT": "86%"
  },
  {
    "COMPOUND": "O=C(CCl)Nc1cc(Oc2ccc(C(F)(F)F)cc2Cl)ccc1[N+](=O)[O-] [Example 35]",
    "MEASUREMENT": "45%"
  },
  {
    "COMPOUND": "CNC(=O)C(C)Oc1cc(Oc2ccc(C(F)(F)F)cc2Cl)ccc1[N+](=O)[O-] (centres unmarked) [Example 52]",
    "MEASUREMENT": "87%"
  },
  {
    "COMPOUND": "CC(=O)C(C)Oc1cc(Oc2ccc(C(F)(F)F)cc2Cl)ccc1[N+](=O)[O-] (centres unmarked) [Example 32]",
    "MEASUREMENT": "86%"
  },
  {
    "COMPOUND": "C=CCOc1cc(Oc2ccc(C(F)(F)F)cc2Cl)ccc1[N+](=O)[O-] [Example 12]",
    "MEASUREMENT": "77%"
  }
]

Given the compound CS(=O)(=O)CCOc1cc(Oc2ccc(C(F)(F)F)cc2Cl)ccc1[N+](=O)[O-] [Example 42] , what is its reported activity at 4483.4 g/ha? 38%

// query: O=[N+]([O-])c1ccc(Oc2ccc(C(F)(F)F)cc2Cl)cc1OCCO [Example 15] 79%

// query: C#CCCOc1cc(Oc2ccc(C(F)(F)F)cc2Cl)ccc1[N+](=O)[O-] [Example 29] 79%

// query: CN(CCO)c1cc(Oc2ccc(C(F)(F)F)cc2Cl)ccc1[N+](=O)[O-] [Example 43] 2%

// query: O=[N+]([O-])c1ccc(Oc2ccc(C(F)(F)F)cc2Cl)cc1OCC(O)CO (centres unmarked) [Example 39] 64%

// query: CNC(=O)Oc1cc(Oc2ccc(C(F)(F)F)cc2Cl)ccc1[N+](=O)[O-] [Example 33] 32%

// query: CCOc1cc(Oc2ccc(C(F)(F)F)cc2Cl)ccc1[N+](=O)[O-] [Example 3] 99%

// query: Cc1cc(Oc2ccc(C(F)(F)F)cc2Cl)ccc1[N+](=O)[O-] [Example 36] 87%

// query: CC#CCCOc1cc(Oc2ccc(C(F)(F)F)cc2Cl)ccc1[N+](=O)[O-] [Example 14] 61%

// query: CCOc1cc(Oc2ccc(C(F)(F)F)cc2C#N)ccc1[N+](=O)[O-] [Example 7] 75%

// query: CC(C)Oc1cc(Oc2ccc(C(F)(F)F)cc2Cl)ccc1[N+](=O)[O-] [Example 4] 80%

// query: COC(=O)c1cc(Oc2ccc(C(F)(F)F)cc2Cl)ccc1[N+](=O)[O-] [Example 49] 86%

// query: Nc1cc(Oc2ccc(C(F)(F)F)cc2Cl)ccc1[N+](=O)[O-] [Example 27] 82%

// query: CC(=O)CCOc1cc(Oc2ccc(C(F)(F)F)cc2Cl)ccc1[N+](=O)[O-] [Example 31] 61%

// query: CCN(C(=O)NC)c1cc(Oc2ccc(C(F)(F)F)cc2Cl)ccc1[N+](=O)[O-] [Example 55] 69%

// query: CCOc1cc(Oc2ccc(C(F)(F)F)cc2)ccc1[N+](=O)[O-] [Example 1] 57%

// query: CCCOc1cc(Oc2ccc(C(F)(F)F)cc2C#N)ccc1[N+](=O)[O-] [Example 8] 48%

// query: CCNc1cc(Oc2ccc(C(F)(F)F)cc2Cl)ccc1[N+](=O)[O-] [Example 19] 84%

// query: CN(C)CCOc1cc(Oc2ccc(C(F)(F)F)cc2Cl)ccc1[N+](=O)[O-] [Example 17] 45%

// query: CNC(=O)Nc1cc(Oc2ccc(C(F)(F)F)cc2Cl)ccc1[N+](=O)[O-] [Example 44] 60%

// query: CCSC(=O)Nc1cc(Oc2ccc(C(F)(F)F)cc2Cl)ccc1[N+](=O)[O-] [Example 45] 17%

// query: C#CC(C)Oc1cc(Oc2ccc(C(F)(F)F)cc2Cl)ccc1[N+](=O)[O-] (centres unmarked) [Example 30] 75%

* * *

TEST: Preemergence herbicidal activity (% control) against monocot weeds
Type: in vivo
MEASUREMENT_CONDITIONS: pre-emergence, 336 h; 4 lb./A., average, about two weeks after application; read-out: Herbicidal activity (% control), preemergence, monocots
// values below are reported activity at 4483.4 g/ha
Number only, in %; omit the unit.

Example results:
[
  {
    "MOLECULE": "CC#CCCOc1cc(Oc2ccc(C(F)(F)F)cc2Cl)ccc1[N+](=O)[O-]",
    "UNIT_OF_MEASURE": "%",
    "activity at 4483.4 g/ha": 64
  },
  {
    "MOLECULE": "COC(=O)C(C)Oc1cc(Oc2ccc(C(F)(F)F)cc2Cl)ccc1[N+](=O)[O-] (stereo not drawn)",
    "UNIT_OF_MEASURE": "%",
    "activity at 4483.4 g/ha": 90
  },
  {
    "MOLECULE": "CCN(C(=O)NC)c1cc(Oc2ccc(C(F)(F)F)cc2Cl)ccc1[N+](=O)[O-]",
    "UNIT_OF_MEASURE": "%",
    "activity at 4483.4 g/ha": 91
  },
  {
    "MOLECULE": "C#CC(C)Oc1cc(Oc2ccc(C(F)(F)F)cc2Cl)ccc1[N+](=O)[O-] (stereo not drawn)",
    "UNIT_OF_MEASURE": "%",
    "activity at 4483.4 g/ha": 81
  },
  {
    "MOLECULE": "CCCOc1cc(Oc2ccc(C(F)(F)F)cc2C#N)ccc1[N+](=O)[O-]",
    "UNIT_OF_MEASURE": "%",
    "activity at 4483.4 g/ha": 61
  }
]

Given the molecule CCOc1cc(Oc2c(Cl)cc(C(F)(F)F)cc2Cl)ccc1[N+](=O)[O-] , what is its reported activity at 4483.4 g/ha? 91

// query: COc1cc(Oc2ccc(C(F)(F)F)cc2Cl)ccc1[N+](=O)[O-] 97

// query: O=[N+]([O-])c1ccc(Oc2ccc(C(F)(F)F)cc2Cl)cc1N1CCOCC1 74

// query: CCOc1cc(Oc2ccc(C(F)(F)F)cc2C#N)ccc1[N+](=O)[O-] 65

// query: CC(Oc1cc(Oc2ccc(C(F)(F)F)cc2Cl)ccc1[N+](=O)[O-])C(=O)O (stereo not drawn) 87

// query: CNC(=O)Nc1cc(Oc2ccc(C(F)(F)F)cc2Cl)ccc1[N+](=O)[O-] 66

// query: CNC(=O)C(C)Oc1cc(Oc2ccc(C(F)(F)F)cc2Cl)ccc1[N+](=O)[O-] (stereo not drawn) 79

// query: C#CCOc1cc(Oc2ccc(C(F)(F)F)cc2Cl)ccc1[N+](=O)[O-] 76
